Provide the recorded TGI for the entries that follow.
tested on: UO-31 renal; assay: NCI tumour cell line growth inhibition, 48 h

Answered examples (3):
{"columns": ["compound", "recorded_measurement"],
 "data": [
  ["C=CCN(c1cc(OCc2ccccc2)c2[nH]cc(C)c2c1)S(C)(=O)=O", "> 100 µM"],
  ["O=C(O)CN1C=C(C(=O)c2cc3ccccc3n2S(=O)(=O)c2ccccc2)CCC1", "> 100 µM"],
  ["O=C1NC(N2CCOCC2)=N/C1=C\\c1ccc(Cl)cc1", "> 100 µM"]
]}

Batch lookup, TGI per entry.
1. O=C1C[C@H](c2ccccc2)O[C@@H](c2ccccc2)C1
2. Cc1ccccc1N=Nc1c(O)c(S(=O)(=O)O)cc2cc(S(=O)(=O)O)ccc12
3. COP(=O)(OC)C(=O)N1N(c2ccc([N+](=O)[O-])cc2)C(=O)C(C)NC1(NNc1ccc([N+](=O)[O-])cc1)P(=O)(OC)OC (stereo not given)

> 100 µM
> 100 µM
> 100 µM

Answer for every listed entry: what is its TGI? The entries follow.
1. Cc1ccc(S(=O)(=O)NC(=O)NCCc2cnc[nH]2)cc1
2. O=S(=O)(NCCCNc1nccc(-c2c(-c3ccc(O)cc3)nc3sccn23)n1)c1ccc(F)cc1
3. CC(C)C1C(=O)N(c2c(F)c(F)c(F)c(F)c2F)C(=S)N1CCS(=O)c1ccccc1 (stereo not given)
4. CC(C)=CCC[C@@H](C)/C=C/C=C(\C)C(=O)CC[C@@H]1CC[N@+]2(C)CCCC[C@H]12
5. COC(=O)/C(C#N)=C(\Nc1ccccc1)N1CCOCC1
6. CCN(CCCN(C)C)Cc1cc(I)cc(C)c1O
7. COc1cc(C2Cc3ncccc3-c3[nH]c(=O)c4cccnc4c32)cc(OC)c1OC (stereo not given)

1: > 100 µM; 2: 7.3 µM; 3: 28.6 µM; 4: > 100 µM; 5: > 100 µM; 6: > 100 µM; 7: > 100 µM

For every record below, what is its TGI?
1. CCc1ccccc1N=NC(=O)NNc1ccccc1CC
2. COc1ccccc1NC(=S)N/N=C/c1c(C)n(C)n(-c2ccccc2)c1=O
3. O=C(c1ccccc1)c1c(CC(O)c2ccccn2)n(C(=O)c2ccccc2)c2ccccc12 (stereo not given)

1. 39.8 µM
2. > 100 µM
3. 67.5 µM

---

system: SK-MEL-28 melanoma; test: NCI tumour cell line growth inhibition, 48 h
measure: TGI (µM)
One number for each entry, in µM.

{"columns": ["compound", "TGI, µM"],
 "data": [
  ["CCOC(=O)C(/C(=N/S(=O)(=O)c1cc(C)c(Cl)cc1[S-])[n+]1ccc(N(C)C)cc1)=C(/O)c1ccc([N+](=O)[O-])cc1", 83.5],
  ["CC(ON(C(c1ccccc1)C(C)C)C(C)(C)C)c1ccccc1 (stereo not given)", 47.5],
  ["CCc1ccccc1N=NC(=O)NNc1ccccc1CC", 32.2]
]}

# query: TGI of entry COC(=O)/C=C1\C(=O)N(C(C)=O)c2ccc(Br)cc21
28.6

---

test system: CCRF-CEM leukemia; experiment: NCI tumour cell line growth inhibition, 48 h
Could you please report measured GI50 for the items listed next?

{"columns": ["compound", "subject_of_test", "recorded_measurement"],
 "data": [
  ["Cc1cc2nc3c4cc(O)ccc4n(CCN(C)C)c3nc2cc1C", "CCRF-CEM leukemia", "518 nM"],
  ["CCOC(=O)/C(=C/N1CCN(C(=O)c2ccco2)C1=S)C(=O)c1ccccc1", "CCRF-CEM leukemia", "15600 nM"]
]}

Moving on to another compound below.
Need GI50, item COc1ccc(C2CC(c3cccc(Nc4ccnc5cc(Cl)ccc45)c3)=NN2C=O)cc1 (stereo not drawn)
434 nM

---

tested on: HCT-15 colon; experiment: NCI tumour cell line growth inhibition, 48 h; in the data active = GI50 below about 0.43 µM; inactive = the rest
Respond with a class label; see y for active, n for inactive

Use the examples below as a reference point.
{"columns": ["molecular_string", "subject_of_test", "assigned_category"],
 "data": [
  ["O=S(=O)(NCCCNc1nccc(-c2c(-c3ccc(O)cc3)nc3sccn23)n1)c1ccc(F)cc1", "HCT-15 colon", "n"],
  ["COc1cc(/C=C\\c2cc(OC)c(OC)c(OC)c2)cc(N/C=C\\C(=O)c2ccc(OC(F)(F)F)cc2)c1OC", "HCT-15 colon", "n"],
  ["Cc1nc([P+](c2ccccc2)(c2ccccc2)c2ccccc2)c(Sc2sc(-c3ccccc3)nc2[P+](c2ccccc2)(c2ccccc2)c2ccccc2)o1", "HCT-15 colon", "n"],
  ["COC[C@@H](N=C1NC(=O)/C(=C/c2ccc3ncccc3c2)S1)c1ccccc1", "HCT-15 colon", "n"]
]}

Hi, sorry to bother you, what did the test record for O=C(Cc1ccc(/C=C/C(=O)c2ncc[nH]2)cc1)Nc1ccc(F)cc1 ?
n

Same lookup for O=Nc1ccc(O)c(=O)cc1 , please.
n

And the next one, CCOC(=O)/C(=C/N1CCN(C(=O)c2ccco2)C1=S)C(=O)c1ccccc1 ?
n

Now consider CCN1C/C(=C\c2cc(OC)c(OC)cc2OC)C(=O)/C(=C/c2cc(OC)c(OC)cc2OC)C1 .
n

Can you check COc1ccc(/C=C/C(=O)c2cc(OC)c(OC)c(OC)c2)cc1OCC(=O)Nc1nc2ccc(OC(F)(F)F)cc2s1 next?
y

---

system: SNB-19 CNS; experiment: NCI tumour cell line growth inhibition, 48 h
measure: GI50

{"columns": ["molecule", "subject_of_test", "recorded_measurement"],
 "data": [
  ["COc1cc(Nc2nc3cc(N)cc(N)c3nc2-c2ccccc2)cc(OC)c1OC", "SNB-19 CNS", "33.1 µM"],
  ["COc1cc(/C=C\\c2cc(OC)c(OC)c(OC)c2)cc(N/C=C\\C(=O)c2ccc(OC(F)(F)F)cc2)c1OC", "SNB-19 CNS", "4.97 µM"],
  ["CS(=O)(=O)Nc1cncc(-c2ccc3ncnc(Nc4ccc(F)c(Cl)c4)c3c2)c1", "SNB-19 CNS", "2.09 µM"]
]}

I have 3 molecules here; please give me GI50 for each one.
1. CCN1C/C(=C\c2cc(OC)c(OC)cc2OC)C(=O)/C(=C/c2cc(OC)c(OC)cc2OC)C1
2. N.N.N.N.N.[Co+3].[I-].[N-]=[N+]=[N-]
3. CCOC(=O)/C(=C/N1CCN(C(=O)c2ccco2)C1=S)C(=O)c1ccccc1

["4.23 µM", "> 100 µM", "35.6 µM"]

# batch: return GI50 for each of the 3 molecules below
1. O=C(Nc1ccc2[nH]nc(-c3ccncc3)c2c1)[C@@H]1CCN(CC(=O)N2CCN(c3ccc(-c4ncccn4)cc3)CC2)C1
2. Cc1cc(S(=O)(=O)Nc2nc3ccccc3o2)c(SCc2ccccc2)cc1Cl
3. COc1ccc(C2=N[C@@H](Cc3ccccc3)C(=O)Nc3ccsc32)cc1

> 100 µM
21.6 µM
9.93 µM

Count: 2. Required value per item: GI50.
1. C=C1CC[C@@H]2[C@](C)(COC(C)=O)[C@H](OC(C)=O)CC[C@@]2(C)[C@@H]1CC(Nc1ccc(S(=O)(=O)NC(C)=O)cc1)C1=CCOC1=O (stereo partly specified)
2. Fc1cccc(COc2ccc(Nc3ncnc4sc(-c5cccs5)cc34)cc2Cl)c1

["8.19 µM", "5.33 µM"]

---

tested on: SF-268 CNS; assay: NCI tumour cell line growth inhibition, 48 h
Please respond with reported TGI for every item in the list.

Example results:
{"columns": ["compound", "TGI"],
 "data": [
  ["C=CCN(c1cc(OCc2ccccc2)c2[nH]cc(C)c2c1)S(C)(=O)=O", "> 100 µM"],
  ["CCCCCCCCCCCCOC1C(CNC(=O)C2OC3OC(C)(C)OC3C2NC(=O)Nc2ccc(CC(=O)OC)cc2)OC2OC(C)(C)OC21 (configuration not stated)", "> 100 µM"],
  ["C=C=C(CC1CCCCC1=O)S(=O)(=O)c1ccccc1 (configuration not stated)", "> 10 µM"]
]}

Look at each compound and report its TGI.
1. COC(=O)C(N)CCCC(N)C(=O)NC(C)C(=O)NC(CCC(=O)NCCNCCNc1c2ccccc2nc2cccc([N+](=O)[O-])c12)C(N)=O (configuration not stated)
2. O=C(/C=C/c1cc(Cl)cc(Cl)c1O)c1cccc(O)c1
3. Clc1ccccc1/C=c1\nc(-c2ccccc2)n2c1nc1ccccc12
4. CCOC(=O)c1c[nH]c2c(Sc3ccccc3)nccc2c1=O
5. COc1cc2oc(=O)ccc2cc1C(=O)CC(C)C
6. CCCCNC(=O)c1cc2c(cc1Cl)Sc1nccn1S2(=O)=O
7. Cc1cc(C)n(CC(Cn2nc(C)cc2C)=C(/C(Cl)=C(/Cl)Nc2ccc([N+](=O)[O-])cc2)[N+](=O)[O-])n1

1. 10.7 µM
2. > 100 µM
3. 54.6 µM
4. > 100 µM
5. > 100 µM
6. > 100 µM
7. 19.8 µM

Required: TGI, one value per compound below.
1. CC1=Nc2ccccc2S/C1=C(/C)NNS(=O)(=O)c1ccc(C)cc1
2. COc1ccc(C2=N[C@@H](Cc3ccccc3)C(=O)Nc3ccsc32)cc1

1: > 100 µM; 2: 43.8 µM
